# methodDescription: Inhibition of ER dependent IL6 expression in ER expressing HAECT1 cells
# Assay type: cell-based
# testConditions: Homo sapiens
pIC50: −log10 of the molar value.
assayMetric: pIC50

# compound, assayMetric, experimentalResult
records = [
    ("CCOC(=O)C(C#N)C(c1cccc2ccccc12)c1cccc2ccccc12 (stereo unspecified)", "pIC50", 6.73),
]
